System: PfHDP1 homeodomain (GST-tagged)
Experiment: gcPBM binding intensity (ln(normalized median fluorescence intensity)); higher = stronger DNA binding
In all, about 25,000 sequences were measured (“ln(normalized median fluorescence intensity)”: median about 6.7, highest 2% from about 10 on). Shown is part of a subset that was picked to be rich in the highest values.
Please use 1 (yes) whenever gcPBM binding intensity (ln) is not below 10, and 0 (no) whenever it is.

TTTTGAAGTAATACATGTACTTAAATTACTAAAAAA [XGTACX_site1955] :: 0 (no)
ATGTGCACATGTAGAAGTACTTTTTCTTAAAATACT [XGTACX_site8341] :: 1 (yes)
AAGTTTTCTTAAAGATGTACTTTTTAAAAATAAAAT [XGTACX_site3063] :: 0 (no)
TCTTCATAAAAATAAAGTACATTATATATATAAATA [XGTACX_site3775] :: 0 (no)
